Target: Transthyretin (Homo sapiens) (UniProt P02766)
Experiment: Percentage compound remaining at the conclusion of the acid-mediated fibril formation assay (72 h) in absence of TTR, assay conditions, compound (7.2 uM), pH 4.4, 37C
metricName: Activity (%)
Write down the numeric answer in % and omit the unit.

// known answers, use as guide
Look at this molecule and give its reported Activity. O=C(O)c1ccccc1O/N=C/c1cc(Cl)cc(Cl)c1
4

Look at this molecule and give its reported Activity. Oc1c(Br)cc(/C=N/Oc2ccccc2)cc1Br
8

Look at this molecule and give its reported Activity. Oc1c(I)cc(/C=N/Oc2ccccc2)cc1I
24

---
Look at this molecule and give its reported Activity. O=C(O)c1cccc(O/N=C/c2cc(I)c(O)c(I)c2)c1
81
